Every entry's value here was drawn from ChEMBL document CHEMBL5303573.

Assay: The drug is tested on Bacteroides vulgatus strain: ATCC8482 for biotransformation. The drug concentrations were measured before and after a 12-h incubation by liquid-chromatography-coupled mass spectrometry (LC–MS)
Conditions: phocaeicola vulgatus, 2 µM
measured.attribute: Bacterial Biotransformation

Past entries and their recorded results:
# compound, Bacterial Biotransformation
data = [
    ("Cc1ccc(S(=O)(=O)NC(=O)NN2CCCCCC2)cc1 [TOLAZAMIDE]", "Compound metabolized"),
    ("CC(=O)CC(c1ccccc1)c1c(O)c2ccccc2oc1=O (centres undefined)", "Compound metabolized"),
    ("Cc1ccc(/C(=C\\CN2CCCC2)c2ccccn2)cc1", "Compound NOT metabolized"),
    ("CCOC(=O)[C@H](CCc1ccccc1)N[C@@H](C)C(=O)N1CCC[C@H]1C(=O)O.O=C(O)/C=C\\C(=O)O [ENALAPRIL MALEATE]", "Compound NOT metabolized"),
    ("CCN(CC)CC#CCOC(=O)C(O)(c1ccccc1)C1CCCCC1.Cl (centres undefined) [OXYBUTYNIN CHLORIDE]", "Compound metabolized"),
    ("CN1CCC(OC(c2ccccc2)c2ccccc2)CC1", "Compound NOT metabolized"),
    ("CC#C[C@]1(O)CC[C@H]2[C@@H]3CCC4=CC(=O)CCC4=C3[C@@H](c3ccc(N(C)C)cc3)C[C@@]21C", "Compound metabolized"),
    ("Br.CN1CCC[C@@H]1Cc1c[nH]c2ccc(CCS(=O)(=O)c3ccccc3)cc12 [ELETRIPTAN HYDROBROMIDE]", "Compound NOT metabolized"),
]

Lab note: measured Bacterial Biotransformation of Nc1nc2ccc(OC(F)(F)F)cc2s1 was Compound NOT metabolized
